- protocol-text: DPPH free radical scavenging assay
- measurement-parameters: 250 μg/mL, n = 3
Counter-ions that a name gives are not always drawn.
DPPH Percent Inhibition (Mean ± S.E.M) overview
Number only, in %; omit the unit.

Previously resolved entries follow.
# compound, measurement-type, unit-tag, quantitative-result
rows = [
    ("CCCCCCCCCCCCCCCCCCCCCC(=O)O", "DPPH Percent Inhibition (Mean ± S.E.M)", "%", 60.61),
    ("CC(C)C(C(=O)O)c1ccc(C(C(=O)O)C(C)C)cc1 (centres unmarked)", "DPPH Percent Inhibition (Mean ± S.E.M)", "%", 71.13),
]

For the compound O=COC(O)O [Compound XI, methanetriol mano formate] , give its reported DPPH Percent Inhibition (Mean ± S.E.M).
62.13

For the compound CC(C)CCCCC1CC2CC(C)(C)C3C4CC(C)(C)C5CC(O)CC(C)C5C4CC(C)C3C2C1 (centres unmarked) , give its reported DPPH Percent Inhibition (Mean ± S.E.M).
64.11

For the compound O=C1O[C@H]([C@@H](O)CO)C(O)=C1O [Ascorbic Acid, reference compound] , give its reported DPPH Percent Inhibition (Mean ± S.E.M).
78.63

----------
- System: α-amylase
- protocol-text: α-Amylase inhibition assay (DNS method)
- Format: biochemical
- measurement-parameters: 62.5 μg/mL, n = 3
Counter-ions that a name gives are not always drawn.
measurement-type: Percent Inhibition of α-Amylase (Mean ± S.E.M)

Previously resolved entries follow.
# compound, result
data = [
    ("CC(C)C(C(=O)O)c1ccc(C(C(=O)O)C(C)C)cc1 (centres unmarked) [Compound XII]", "47.51 ± 1.19 %"),
    ("O=COC(O)O [Compound XI, methanetriol mano formate]", "46.98 ± 2.49 %"),
    ("C[C@H]1O[C@H](O[C@H]2[C@H](O)[C@@H](O)[C@@H](O[C@H]3[C@H](O)[C@@H](O)C(O)O[C@@H]3CO)O[C@@H]2CO)[C@H](O)[C@@H](O)[C@@H]1N[C@H]1C=C(CO)[C@@H](O)[C@H](O)[C@H]1O (some centres unmarked) [Acarbose, reference compound]", "48.13 ± 2.09%"),
    ("CCCCCCCCCCCCCCCCCCCCCC(=O)O [Compound X, docosanoic acid]", "40.01 ± 2.06 ^ns %"),
]

For the compound CC(C)CCCCC1CC2CC(C)(C)C3C4CC(C)(C)C5CC(O)CC(C)C5C4CC(C)C3C2C1 (centres unmarked) [Compound IX] , give its reported Percent Inhibition of α-Amylase (Mean ± S.E.M).
40.13 ± 1.27 %

----------
Percent Inhibition of α-Amylase (Mean ± S.E.M) overview
- System: α-amylase
- protocol-text: α-Amylase inhibition assay (DNS method)
- Type: biochemical
- measurement-parameters: 250 μg/mL, n = 3
Counter-ions that a name gives are not always drawn.
Give the value; after it, write the unit.

Previously resolved entries follow.
# compound, result
measured = [
    ("O=COC(O)O [Compound XI, methanetriol mano formate]", "63.21 ± 1.69 %"),
    ("CC(C)C(C(=O)O)c1ccc(C(C(=O)O)C(C)C)cc1 (centres unmarked)", "66.94 ± 1.11 %"),
    ("CCCCCCCCCCCCCCCCCCCCCC(=O)O", "59.11 ± 2.13 %"),
    ("CC(C)CCCCC1CC2CC(C)(C)C3C4CC(C)(C)C5CC(O)CC(C)C5C4CC(C)C3C2C1 (centres unmarked)", "59.14 ± 0.82 %"),
]

Now look at this entry.
For the compound C[C@H]1O[C@H](O[C@H]2[C@H](O)[C@@H](O)[C@@H](O[C@H]3[C@H](O)[C@@H](O)C(O)O[C@@H]3CO)O[C@@H]2CO)[C@H](O)[C@@H](O)[C@@H]1N[C@H]1C=C(CO)[C@@H](O)[C@H](O)[C@H]1O (some centres unmarked) [Acarbose, reference compound] , give its reported Percent Inhibition of α-Amylase (Mean ± S.E.M).
66.37 ± 1.18%

----------
- target-entity: acetylcholinesterase (AChE) (Homo sapiens)
- Sequence (P22303 32-614, species assumed): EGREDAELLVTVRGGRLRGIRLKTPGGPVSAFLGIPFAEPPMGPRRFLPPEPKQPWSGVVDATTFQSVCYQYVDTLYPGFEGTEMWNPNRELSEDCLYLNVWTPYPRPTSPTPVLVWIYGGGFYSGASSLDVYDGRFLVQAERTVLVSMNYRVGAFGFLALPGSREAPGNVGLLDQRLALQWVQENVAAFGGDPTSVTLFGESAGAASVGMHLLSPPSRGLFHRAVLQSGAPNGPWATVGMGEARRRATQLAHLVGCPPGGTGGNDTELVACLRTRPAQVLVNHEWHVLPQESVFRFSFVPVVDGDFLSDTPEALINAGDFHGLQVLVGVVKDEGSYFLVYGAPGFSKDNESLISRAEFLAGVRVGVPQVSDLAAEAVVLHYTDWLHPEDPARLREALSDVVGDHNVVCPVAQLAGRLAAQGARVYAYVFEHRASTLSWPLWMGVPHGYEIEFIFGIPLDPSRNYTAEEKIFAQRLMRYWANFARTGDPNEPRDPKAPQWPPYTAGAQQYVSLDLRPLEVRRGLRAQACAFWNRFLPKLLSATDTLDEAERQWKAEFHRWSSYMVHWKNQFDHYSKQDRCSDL
- protocol-text: biochemical
- Experimental: AChE and BChE were used as representative enzymes to determine the anticholinesterase effect of isolated compounds using Ellman’s assay with slight modifications. Sample stocks (5 mg/5 mL in methanol) were prepared and a range of serial dilutions (125, 250, 500, 1000 μg/mL) was made from each of them. Phosphate buffer (6.8 pH) was used for making the enzyme and substrate solutions.
measurement-type: pIC50
On this scale, pIC50 is minus log10 of a concentration expressed in M (mol/L).

For the molecule CCCCCCCCCCCCCCCCCCCCCC(=O)O , give its reported pIC50.
3.42

----------
- Test system: α-amylase
- protocol-text: α-Amylase inhibition assay (DNS method)
- Type: biochemical
- measurement-parameters: 125 μg/mL, n = 3
Structures can show the parent of a compound that is named as a salt.
Percent Inhibition of α-Amylase (Mean ± S.E.M) overview
Give the value; after it, write the unit.

Previously resolved entries follow.
# compound, result
measured = [
    ("CC(C)C(C(=O)O)c1ccc(C(C(=O)O)C(C)C)cc1 (centres unmarked)", "56.10 ± 2.05 %"),
    ("CCCCCCCCCCCCCCCCCCCCCC(=O)O", "50.11 ± 1.31 %"),
    ("C[C@H]1O[C@H](O[C@H]2[C@H](O)[C@@H](O)[C@@H](O[C@H]3[C@H](O)[C@@H](O)C(O)O[C@@H]3CO)O[C@@H]2CO)[C@H](O)[C@@H](O)[C@@H]1N[C@H]1C=C(CO)[C@@H](O)[C@H](O)[C@H]1O (some centres unmarked) [Acarbose, reference compound]", "57.03 ± 1.19%"),
    ("CC(C)CCCCC1CC2CC(C)(C)C3C4CC(C)(C)C5CC(O)CC(C)C5C4CC(C)C3C2C1 (centres unmarked)", "50.61 ± 1.52 %"),
]

Now look at this entry.
For the compound O=COC(O)O [Compound XI, methanetriol mano formate] , give its reported Percent Inhibition of α-Amylase (Mean ± S.E.M).
54.13 ± 2.17 %

----------
- Tested on: α-amylase
- protocol-text: α-Amylase inhibition assay (DNS method)
- Format: biochemical
- measurement-parameters: 1000 μg/mL, n = 3
Counter-ions that a name gives are not always drawn.
Percent Inhibition of α-Amylase (Mean ± S.E.M) overview
Number only, in %; omit the unit.

Previously resolved entries follow.
# compound, target-entity, quantitative-result
records = [
    ("CC(C)C(C(=O)O)c1ccc(C(C(=O)O)C(C)C)cc1 (stereo not shown) [Compound XII]", "α-amylase", 79.07),
    ("O=COC(O)O [Compound XI, methanetriol mano formate]", "α-amylase", 81.90),
    ("CC(C)CCCCC1CC2CC(C)(C)C3C4CC(C)(C)C5CC(O)CC(C)C5C4CC(C)C3C2C1 (stereo not shown) [Compound IX]", "α-amylase", 70.21),
]

Now look at this entry.
For the compound C[C@H]1O[C@H](O[C@H]2[C@H](O)[C@@H](O)[C@@H](O[C@H]3[C@H](O)[C@@H](O)C(O)O[C@@H]3CO)O[C@@H]2CO)[C@H](O)[C@@H](O)[C@@H]1N[C@H]1C=C(CO)[C@@H](O)[C@H](O)[C@H]1O (stereo partly shown) [Acarbose, reference compound] , give its reported Percent Inhibition of α-Amylase (Mean ± S.E.M).
92.12

----------
- protocol-text: DPPH free radical scavenging assay
- measurement-parameters: 1000 μg/mL, n = 3
Where a name gives a salt, the structure may show the parent alone.
measurement-type: DPPH Percent Inhibition (Mean ± S.E.M)

For the compound O=COC(O)O [Compound XI, methanetriol mano formate] , give its reported DPPH Percent Inhibition (Mean ± S.E.M).
80.41 ± 2.16%

For the compound CC(C)CCCCC1CC2CC(C)(C)C3C4CC(C)(C)C5CC(O)CC(C)C5C4CC(C)C3C2C1 (centres unmarked) [Compound IX] , give its reported DPPH Percent Inhibition (Mean ± S.E.M).
80.21 ± 040 ^ns percent

----------
Counter-ions that a name gives are not always drawn.
Please consider the recorded IC50 for butyrylcholinesterase (BChE) (Homo sapiens, UniProt P06276) in what follows.
Number only, in µM; omit the unit.

Previously resolved entries follow.
# molecule, target-entity, IC50 (µM)
records = [
    ("CC(C)CCCCC1CC2CC(C)(C)C3C4CC(C)(C)C5CC(O)CC(C)C5C4CC(C)C3C2C1 (stereo not shown)", "butyrylcholinesterase (BChE) (Homo sapiens, UniProt P06276)", 186),
    ("O=COC(O)O [Compound XI, methanetriol mano formate]", "butyrylcholinesterase (BChE) (Homo sapiens, UniProt P06276)", 815),
]

Supply IC50 measured with butyrylcholinesterase (BChE) (Homo sapiens, UniProt P06276) for CC(C)C(C(=O)O)c1ccc(C(C(=O)O)C(C)C)cc1 (stereo not shown) .
Sequence (P06276 29-602, species assumed): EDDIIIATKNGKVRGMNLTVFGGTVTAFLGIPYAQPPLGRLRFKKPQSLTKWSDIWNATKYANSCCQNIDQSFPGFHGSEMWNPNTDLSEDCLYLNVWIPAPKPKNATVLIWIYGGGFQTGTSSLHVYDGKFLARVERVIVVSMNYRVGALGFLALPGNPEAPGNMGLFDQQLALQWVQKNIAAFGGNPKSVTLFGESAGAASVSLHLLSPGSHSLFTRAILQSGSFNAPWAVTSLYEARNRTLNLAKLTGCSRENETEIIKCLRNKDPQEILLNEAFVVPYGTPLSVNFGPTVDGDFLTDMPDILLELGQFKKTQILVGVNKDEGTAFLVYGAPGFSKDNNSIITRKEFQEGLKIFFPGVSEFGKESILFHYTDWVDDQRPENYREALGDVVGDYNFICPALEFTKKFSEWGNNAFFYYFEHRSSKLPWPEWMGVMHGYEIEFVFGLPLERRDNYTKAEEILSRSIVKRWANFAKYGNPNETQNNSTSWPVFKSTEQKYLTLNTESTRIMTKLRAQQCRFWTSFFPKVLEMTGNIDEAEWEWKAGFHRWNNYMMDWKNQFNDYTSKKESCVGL
216

Supply IC50 measured with butyrylcholinesterase (BChE) (Homo sapiens, UniProt P06276) for CCCCCCCCCCCCCCCCCCCCCC(=O)O .
382
